System: Saos-2 human osteosarcoma cells
Assay: MTT assay, in vitro inhibitory activity on cells
Assay type: cell-based
Conditions: typically 48 hours
From the text: In this example, MTT assay was used to detect in vitro inhibitory activity of the compounds prepared according to the above examples on the cells. Dimethyl sulfoxide (DMSO) is capable of dissolving formazan in cells, and absorbance value can be measured at a wavelength of 490 nm by an enzyme-linked immunometric meter, which reflects the number of living cells. […] 8. Measuring the absorbance of each well at 490 nm by an enzyme-linked immunometric meter.
pIC50: −log10 of the molar value.
VALUE_TYPE: pIC50

Please review the following examples before continuing.
GIVEN_SMILES: Cc1ccc(C(=O)Nc2ccc(CN3CCN(C)CC3)c(C(F)(F)F)c2)cc1C#Cc1cnc2[nH]ccc2n1
TARGET_OR_TEST_SYSTEM: Saos-2 human osteosarcoma cells
VALUE_TYPE: pIC50
OBS_VALUE: 6.42
--
GIVEN_SMILES: Cc1cn(-c2cc(NC(=O)c3ccc(F)c(C#Cc4cnc(-c5nc[nH]n5)n4C)c3)cc(C(F)(F)F)c2)cn1
TARGET_OR_TEST_SYSTEM: Saos-2 human osteosarcoma cells
VALUE_TYPE: pIC50
OBS_VALUE: 5.94
--
GIVEN_SMILES: Cc1ccc(C(=O)Nc2ccc(CN3CCN(C)CC3)c(C(F)(F)F)c2)cc1C#Cc1cn(C)c(-c2ncc[nH]2)n1
TARGET_OR_TEST_SYSTEM: Saos-2 human osteosarcoma cells
VALUE_TYPE: pIC50
OBS_VALUE: 6.06
--
GIVEN_SMILES: Cc1ccc(C(=O)Nc2ccc(CN3CCN(C)CC3)c(C(F)(F)F)c2)cc1C#Cc1cn(C)c(-c2ncc([N+](=O)[O-])[nH]2)n1
TARGET_OR_TEST_SYSTEM: Saos-2 human osteosarcoma cells
VALUE_TYPE: pIC50
OBS_VALUE: 5.57
--
GIVEN_SMILES: Cc1ccc(C(=O)Nc2ccc(CN3CCN(C)CC3)c(C(F)(F)F)c2)cc1C#Cc1cn(C)c(-c2ncc(C(F)(F)F)[nH]2)n1
TARGET_OR_TEST_SYSTEM: Saos-2 human osteosarcoma cells
VALUE_TYPE: pIC50
OBS_VALUE: 5.94

P: CNC(=O)c1cc(Oc2cc(NC(=O)c3ccc(F)c(C#Cc4cnc(-c5nc[nH]n5)n4C)c3)cc(C(F)(F)F)c2)ccn1
Q: Cc1cnc(-c2nc(C#Cc3cc(C(=O)Nc4ccc(CN5CCN(CCO)CC5)c(C(F)(F)F)c4)ccc3C)cn2C)[nH]1
### Prompt Response body: label of entry with the larger pIC50; valid values P , Q . To answer, give the label that identifies your chosen option.
### Response P
(P: 6.19, Q: 5.24)

----------
Test system: K562 leukemia cells
Test: MTT assay, in vitro inhibitory activity on cells
Assay type: cell-based
Details: Homo sapiens, typically 48 hours, read-out: IC50 K562 Chronic myelogenous leukemia cells
VALUE_TYPE: IC50 (nM)

Here is how some compounds turned out for IC50.
GIVEN_SMILES: Cc1ccc(NC(=O)Nc2ccc(CN3CCN(C)CC3)c(C(F)(F)F)c2)cc1C#Cc1ccc(-c2ncc(C#N)[nH]2)nc1
IC50 (nM): 3310

GIVEN_SMILES: Cc1ccc(C(=O)Nc2ccc(CN3CCN(C)CC3)c(C(F)(F)F)c2)cc1C#Cc1cn(C)c(-c2ncc(C(F)(F)F)[nH]2)n1
IC50 (nM): 330

GIVEN_SMILES: Cc1ccc(NC(=O)Nc2ccc(CN3CCN(C)CC3)c(C(F)(F)F)c2)cc1C#Cc1cnc2[nH]ccc2n1
IC50 (nM): 2060

GIVEN_SMILES: Cc1ccc(C(=O)Nc2ccc(CN3CCN(C)CC3)c(C(F)(F)F)c2)cc1C#Cc1ccn2nc(N(C)C)nc2c1
IC50 (nM): 4160

P: Cc1ccc(C(=O)Nc2ccc(CN3CC[C@H](N(C)C)C3)c(C(F)(F)F)c2)cc1C#Cc1ccc(-c2ncc(F)[nH]2)nc1
Q: Cc1ccc(NC(=O)c2ccc(CN3CCN(CCO)CC3)c(C(F)(F)F)c2)cc1C#Cc1cn(C)c(-c2ncc(C(F)(F)F)[nH]2)n1
### Prompt Form field 'greater IC50' accepts P or Q ; which applies? Returns: label corresponding to the selected item.
### Response P
(P: 4070 nM, Q: 370 nM)

----------
Test: Pharmacokinetic studies in male SD rats
Type: in vivo
Settings: rat, plasma, iv, I.V. 3 mg/kg
Where a name gives a salt, the structure may show the parent alone.
VALUE_TYPE: Cmax (ng/mL)
Kindly provide the numeric value in ng/mL only, without the unit symbol.

### Prompt So what does the record say about Cmax for Cc1ccc(C(=O)Nc2ccc(CN3CCN(C)CC3)c(C(F)(F)F)c2)cc1C#Cc1cnc2[nH]ccc2n1 [Example 27, hydrochloride] ?
### Response 1270

----------
Assay: Pharmacokinetic studies in male SD rats
Type: in vivo
Conditions: rat, plasma, iv, I.V. 3 mg/kg, read-out: MRT(0-∞)
Method: The compound prepared in Example 27 of the present invention was illustratively selected for this experiment. The pharmaceutical formulation for oral administration was made by dissolving the compound in physiological saline to prepare 3 mg/ml of suspension. The pharmaceutical formulation for caudal vein injection was made by using a mixed solution of DMSO, polyoxyethylene castor oil and physiological saline in the volume ratio of 1:30:69 to prepare 2.5 mg/ml of solution. […]
Structures can show the parent of a compound that is named as a salt.
VALUE_TYPE: MRT inf (h)
Provide the reading as a plain figure in h.

### Prompt Can you share its MRT inf? I mean this molecule: Cc1ccc(C(=O)Nc2ccc(CN3CCN(C)CC3)c(C(F)(F)F)c2)cc1C#Cc1cnc2[nH]ccc2n1 [Example 27, hydrochloride]
### Response 4.92

----------
Assay: Pharmacokinetic studies in male SD rats
Format: in vivo
Settings: rat, plasma, iv, I.V. 3 mg/kg
Experimental: The compound prepared in Example 27 of the present invention was illustratively selected for this experiment. The pharmaceutical formulation for oral administration was made by dissolving the compound in physiological saline to prepare 3 mg/ml of suspension. The pharmaceutical formulation for caudal vein injection was made by using a mixed solution of DMSO, polyoxyethylene castor oil and physiological saline in the volume ratio of 1:30:69 to prepare 2.5 mg/ml of solution. […]
Counter-ions that a name gives are not always drawn.
VALUE_TYPE: AUC(0-t) (ng·h/mL)
# unit: ng·h/mL | format: bare number

### Prompt Name the recorded AUC(0-t) for Cc1ccc(C(=O)Nc2ccc(CN3CCN(C)CC3)c(C(F)(F)F)c2)cc1C#Cc1cnc2[nH]ccc2n1 [Example 27, hydrochloride] .
### Response 3300

----------
Assay: Pharmacokinetic studies in male SD rats
Type: in vivo
Settings: rat, plasma, po, I.G. 15 mg/kg
Counter-ions that a name gives are not always drawn.
VALUE_TYPE: Tmax (h)
// return numeric value only (unit: h, not printed)

### Prompt Endpoint output: Tmax of Cc1ccc(C(=O)Nc2ccc(CN3CCN(C)CC3)c(C(F)(F)F)c2)cc1C#Cc1cnc2[nH]ccc2n1 [Example 27, hydrochloride] . Value?
### Response 7.33

----------
Target: Human ABL1 (T315I) (Homo sapiens (Human), UniProt P00519, T315I)
Experiment: ABL1 (T315I) kinase activity assay ([γ-33P] ATP, Abltide)
Settings: 1.0 μM ATP, 5.0 μM Abltide, 120 minutes
VALUE_TYPE: IC50 (nM)

GIVEN_SMILES: CNc1nc2cc(C#Cc3cc(C(=O)Nc4ccc(CN5CCN(C)CC5)c(C(F)(F)F)c4)ccc3C)ccn2n1
OBS_VALUE: 2.28

I: Cc1ccc(C(=O)Nc2ccc(CN3CCN(C)CC3)c(C(F)(F)F)c2)cc1C#Cc1ccn2nc(N(C)C)nc2c1
II: Cc1ccc(C(=O)Nc2ccc(CN3CCN(C)CC3)c(C(F)(F)F)c2)cc1C#Cc1ccc(-c2ncc(C(F)(F)F)[nH]2)nc1
### Prompt In terms of reported IC50, does I or II have the smaller number? Your answer should be the label of the entry you select.
### Response I

----------
Assay: Pharmacokinetic studies in male SD rats
Type: in vivo
Conditions: rat, plasma, iv, I.V. 3 mg/kg
Method: The compound prepared in Example 27 of the present invention was illustratively selected for this experiment. The pharmaceutical formulation for oral administration was made by dissolving the compound in physiological saline to prepare 3 mg/ml of suspension. The pharmaceutical formulation for caudal vein injection was made by using a mixed solution of DMSO, polyoxyethylene castor oil and physiological saline in the volume ratio of 1:30:69 to prepare 2.5 mg/ml of solution. […]
Counter-ions that a name gives are not always drawn.
VALUE_TYPE: half-life (h)
Please reply with the bare figure in h and do not write the unit itself.

### Prompt Please report the recorded half-life for Cc1ccc(C(=O)Nc2ccc(CN3CCN(C)CC3)c(C(F)(F)F)c2)cc1C#Cc1cnc2[nH]ccc2n1 [Example 27, hydrochloride] .
### Response 4.93

----------
Experiment: Pharmacokinetic studies in male SD rats
Assay type: in vivo
Settings: rat, plasma, po, I.G. 15 mg/kg, read-out: MRT(0-∞)
Where a name gives a salt, the structure may show the parent alone.
VALUE_TYPE: MRT inf (h)
Supply the numeric figure in h, leaving out any unit text.

### Prompt What value of MRT inf has been reported for the following molecule? Cc1ccc(C(=O)Nc2ccc(CN3CCN(C)CC3)c(C(F)(F)F)c2)cc1C#Cc1cnc2[nH]ccc2n1 [Example 27, hydrochloride]
### Response 7.71

Data origin: patent US9255107B2
